This section presents molecules with their documented Ki values.
- targetEntity: UniProt Q95323
Please state the figure in µM; there is no need to write the unit.

Below are worked cases with known answers.
>  <sampleSmiles>
Cc1cc(-c2ccccc2)cc(C)[n+]1CC(=O)NCCc1ccc(S(N)(=O)=O)cc1

>  <valueUnit>
µM

>  <Ki>
0.046

$$$$
>  <sampleSmiles>
CCc1cc(-c2ccccc2)cc(CC)[n+]1CC(=O)/N=c1/sc(S(N)(=O)=O)nn1C

>  <valueUnit>
µM

>  <Ki>
0.025

$$$$
>  <sampleSmiles>
CC(C)c1cc(-c2ccccc2)cc(C(C)C)[n+]1CC(=O)NNc1ccc(S(N)(=O)=O)cc1

>  <valueUnit>
µM

>  <Ki>
0.36

$$$$
>  <sampleSmiles>
CCc1cc(-c2ccccc2)cc(CC)[n+]1CC(=O)Nc1ccc(S(N)(=O)=O)cc1Cl

>  <valueUnit>
µM

>  <Ki>
0.046

$$$$
>  <sampleSmiles>
CCc1cc(-c2ccccc2)cc(CC)[n+]1CC(=O)Nc1ccc(S(=O)(=O)Nc2cccc(S(N)(=O)=O)c2)cc1

>  <valueUnit>
µM

>  <Ki>
0.06

$$$$

Summary: CC(C)c1cc(-c2ccccc2)cc(C(C)C)[n+]1CC(=O)OCCc1ccc(S(N)(=O)=O)cc1 , UniProt Q95323, Ki = 0.115

---

Target chain: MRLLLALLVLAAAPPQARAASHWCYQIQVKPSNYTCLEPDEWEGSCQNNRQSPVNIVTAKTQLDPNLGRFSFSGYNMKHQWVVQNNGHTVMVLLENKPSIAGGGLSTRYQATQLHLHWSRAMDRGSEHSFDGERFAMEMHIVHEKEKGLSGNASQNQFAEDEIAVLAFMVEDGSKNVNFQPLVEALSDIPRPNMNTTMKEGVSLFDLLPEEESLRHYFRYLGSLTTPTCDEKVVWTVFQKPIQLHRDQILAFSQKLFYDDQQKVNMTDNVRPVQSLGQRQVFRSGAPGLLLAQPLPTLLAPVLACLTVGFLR
pKi: −log10 of the molar value.
Assign class by pKi: not lower than 7 means rule met; lower than 7 means rule not met.

See these solved cases before continuing.
>  <sampleSmiles>
CC(C)c1cc(-c2ccccc2)cc(C(C)C)[n+]1CC(=O)OCCOc1ccc2nc(S(N)(=O)=O)sc2c1

>  <className>
rule met

$$$$
>  <sampleSmiles>
Cc1cc(-c2ccccc2)cc(C)[n+]1CC(=O)Nc1ccc(S(=O)(=O)Nc2cccc(S(N)(=O)=O)c2)cc1

>  <className>
rule met

$$$$
>  <sampleSmiles>
CC(C)c1cc(-c2ccccc2)cc(C(C)C)[n+]1CC(=O)Nc1nnc(S(N)(=O)=O)s1

>  <className>
rule met

$$$$
>  <sampleSmiles>
CCc1cc(-c2ccccc2)cc(CC)[n+]1CC(=O)Nc1ccc(S(N)(=O)=O)cc1F

>  <className>
rule met

$$$$
>  <sampleSmiles>
Cc1cc(-c2ccccc2)cc(C)[n+]1CC(=O)Nc1ccc(S(=O)(=O)Nc2ccc(S(N)(=O)=O)cc2)cc1

>  <className>
rule met

$$$$
>  <sampleSmiles>
CCc1cc(-c2ccccc2)cc(CC)[n+]1CC(=O)NCCC(=O)Nc1nnc(S(N)(=O)=O)s1

>  <className>
rule met

$$$$

Entry Cc1cc(C)[n+](CC(=O)OCCOc2ccc3nc(S(N)(=O)=O)sc3c2)c(C)c1 : is its pKi no less than 7? rule met

Entry Cc1cc(-c2ccccc2)cc(C)[n+]1CC(=O)Nc1ccc(S(=O)(=O)Nc2nnc(S(N)(=O)=O)s2)cc1 : is its pKi no less than 7? rule met

Entry Cc1cc(C)[n+](CC(=O)NNc2ccc(S(N)(=O)=O)cc2)c(C)c1 : is its pKi no less than 7? rule not met

Entry Cc1cc(-c2ccccc2)cc(C)[n+]1CC(=O)Nc1cccc(S(N)(=O)=O)c1 : is its pKi no less than 7? rule not met

Entry Cc1cc(C)[n+](CC(=O)NCCC(=O)Nc2nnc(S(N)(=O)=O)s2)c(C)c1 : is its pKi no less than 7? rule met

Entry Cc1cc(C)[n+](CC(=O)Nc2ccccc2S(N)(=O)=O)c(C)c1 : is its pKi no less than 7? rule not met

Entry CCc1cc(-c2ccccc2)cc(CC)[n+]1CC(=O)OCCOc1ccc2nc(S(N)(=O)=O)sc2c1 : is its pKi no less than 7? rule met

Entry Cc1cc(-c2ccccc2)cc(C)[n+]1CC(=O)Nc1ccc(S(N)(=O)=O)cc1I : is its pKi no less than 7? rule met

Entry Cc1cc(-c2ccccc2)cc(C)[n+]1CC(=O)Nc1nnc(S(N)(=O)=O)s1.[O-][Cl+3]([O-])([O-])[O-] : is its pKi no less than 7? rule met

Source listed as ChEMBL document CHEMBL1133669.
